Target: T1, Lip-DVL2-PDZ (human, UniProt O14641 285-373)
T1 sequence: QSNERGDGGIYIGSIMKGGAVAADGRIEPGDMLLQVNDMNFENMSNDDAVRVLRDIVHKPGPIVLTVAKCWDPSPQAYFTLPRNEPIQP
Experiment: ITC
readout: pKd
Answers are plain numbers, as −log10 of the molar value.

Task: Fill blank: measured pKd of the binder RFP-NKD1-EF (domain or fragment) EPCPGSKKQLKFEELQCDVSMEEDSRQEWTFTLYDFDNNGKVTREDITSLLHTIYEVVDSSVNHSPTSSKMLRVKLTVAPD is ____.
Output: 5.49
